All values here come from ChEMBL document CHEMBL2113921.

tested on: Plasmodium falciparum; assay: OSM: CSIR assay 3D7: Compounds were tested for inhibition of Plasmodium falciparum growth using a SYBR green I fluorescence based assay.; format: functional, organism-based
reportedMetric: pIC50
Reminder that pIC50 is minus the log10 of a molar concentration.

1) Cc1cc(C(=O)OCC(N)=O)c(C)n1-c1ccc(F)cc1 6.24

input: Quick one: pIC50 of "Cc1cc(/C=C2\S/C(=N\c3ccccc3)N(c3ccccc3)C2=O)c(C)n1-c1cccc(F)c1" ?
output: 5.49

###

tested on: Plasmodium falciparum; assay: OSM: Percent inhibition of Plasmodium falciparum 3D7 growth at 40 uM. Avery Group Griffith.; assay type: functional
reportedMetric: inhibition at 40 µM (%)
Field format: number, assumed %, no unit text.

1) Cc1cc(CN2CCCC2)c(C)n1-c1ccc(F)cc1 96

input: Which measured inhibition at 40 µM belongs to "COc1ccc(-c2cc3ncnc(Oc4ccc(S(=O)(=O)N5CCOCC5)cc4)c3s2)cc1" , tested on Plasmodium falciparum?
output: 80

input: Which measured inhibition at 40 µM belongs to "CNC(=O)CN(C)C(=O)c1cc(C)n(-c2ccc(Br)cc2)c1C" , tested on Plasmodium falciparum?
output: 70

input: Which measured inhibition at 40 µM belongs to "Cc1cccc(-n2c(C)cc(C(=O)N(C)CC(=O)Nc3cc(C)on3)c2C)c1" , tested on Plasmodium falciparum?
output: 85

input: Which measured inhibition at 40 µM belongs to "Cc1cc(C(=O)CCC(N)=O)c(C)n1-c1ccc(F)cc1" , tested on Plasmodium falciparum?
output: 61
